testSystem: Q9I5H3
assayName: Fluorescence binding titration of Q9I5H3 dimer with Esc(1-21)-1c
Parameters: species or system P. aeruginosa
studyConditions: intrinsic protein fluorescence, λexc 280 nm, emission 337 nm; 35 μM Q9I5H3 dimer, peptide 1.5 to 50 µM; 50 mM Tris-HCl pH 8.0, 150 mM NaCl, 20 °C; duplicate; one site specific binding fit; read-out: dissociation constant of the Esc(1-21)-1c–Q9I5H3 complex
measure: Kd (µM)

substance="GIFSKLAGKKIKN^dLLI^dSGLKG-NH2 [Esc(1-21)-1c, derivative of the frog-skin AMP esculentin-1a containing two D-amino acids, Leu14 and Ser17]" measure=Kd number=10
